Parameter stoichiometry N: see the listing below.
Target: the molecule itself
Assay: SEC-coupled SAXS; inline HPLC, Shodex KW404-4F, 20°C, 20 mM HEPES, 150 mM NaCl, pH 7.4, 2.5 mM DTT; 75 µl of 5 mg/ml HSPB6 or equivalent molarity loaded (ΔN11: 111 µl of 3.37 mg/ml); mass at the peak maximum from I0 and Porod volume; number of subunits of the oligomer
Entry rule: numbers only, all in subunits.

| Protein | stoichiometry N, subunits |
| --- | --- |
| HSPB6 Δ41–50 (natural protein, human, UniProt O14558 1-160, looked up, HSPB6, human, full-length protein with residues 41-50 deleted; source: E. coli NiCo21 (DE3) with pRARE2, purified (subtractive IMAC, anion exchange, SEC); not shown: SUMO, N-terminal, cleaved) MEIPVPVQPSWLRRASAPLPGLSAPGRLFDQRFGEGLLEAAPYYLRAPSVALPVAQVPTDPGHFSVLLDVKHFSPEEIAVKVVGEHVEVHARHEERPDEHGFVAREFHRRYRLPPGVDPAAVTSALSPEGVLSIQAAPASAQAPPPAAAK | 2.3 |

Next item in the queue.
Sample HSPB6 F33Y (natural protein, human, UniProt O14558 1-160, looked up, HSPB6, human, full-length protein with the point mutation F33Y; source: E. coli NiCo21 (DE3) with pRARE2, purified (subtractive IMAC, anion exchange, SEC); not shown: SUMO, N-terminal, cleaved) MEIPVPVQPSWLRRASAPLPGLSAPGRLFDQRYGEGLLEAELAALCPTTLAPYYLRAPSVALPVAQVPTDPGHFSVLLDVKHFSPEEIAVKVVGEHVEVHARHEERPDEHGFVAREFHRRYRLPPGVDPAAVTSALSPEGVLSIQAAPASAQAPPPAAAK — what was its stoichiometry N?
1.9
